System: Ebola virus
Assay: microbe, parasite or virus in culture
Format: cell-based, Ebolavirus (EBOV)
Conditions: Zaire ebolavirus, Vero, read-out: Max Effect
Counter-ions that a name gives are not always drawn.
experimentalEndpoint: Emax (%)
Record the value in %, omitting the unit from your answer.

(Q) Determine its reported Emax: CCN(CC)CCNc1ccc(CO)c2sc3ccccc3c(=O)c12 [Hycanthone]
(A) 59.7

(Q) Determine its reported Emax: O=C(Nc1ccc([N+](=O)[O-])cc1Cl)c1cc(Cl)ccc1O [Niclosamide]
(A) 84.2

(Q) Determine its reported Emax: COc1cc([C@@H]2c3cc4c(cc3[C@H](O)[C@H]3COC(=O)[C@H]23)OCO4)cc(OC)c1OC [Podofilox]
(A) 80

(Q) Determine its reported Emax: CC(C)[C@]12O[C@H]1[C@@H]1O[C@]13[C@]1(O[C@H]1C[C@H]1C4=C(CC[C@@]13C)C(=O)OC4)[C@@H]2O [Triptolide]
(A) 85

(Q) Determine its reported Emax: COc1c(C)c2c(c(O)c1C/C=C(\C)CCC(=O)O)C(=O)OC2 [Mycophenolic Acid]
(A) 80

(Q) Determine its reported Emax: COc1cc(C=C2CCCC(=Cc3ccc(O)c(OC)c3)C2=O)ccc1O [2,6-Divanillylidenecyclohexanone]
(A) 93.2

(Q) Determine its reported Emax: CC(O)(CS(=O)(=O)c1ccc(F)cc1)C(=O)Nc1ccc(C#N)c(C(F)(F)F)c1 (stereo not drawn) [Bicalutamide]
(A) 46.4

(Q) Determine its reported Emax: CN(C)CCOC(C)(c1ccccc1)c1ccc(Cl)cc1 (stereo not drawn) [Chlorphenoxamine Hydrochloride]
(A) 78.9

(Q) Determine its reported Emax: CCSc1ccc2c(c1)N(CCCN1CCN(C)CC1)c1ccccc1S2 [Thiethylperazine Maleate]
(A) 83.2

(Q) Determine its reported Emax: CC(C)C(=O)OCC(=O)[C@@]12O[C@H](C3CCCCC3)O[C@@H]1C[C@H]1[C@@H]3CCC4=CC(=O)C=C[C@]4(C)[C@H]3[C@@H](O)C[C@@]12C [Ciclesonide]
(A) 51.2

(Q) Determine its reported Emax: C[C@@H]1C[C@@H]([C@H](O)CC2CC(=O)NC(=O)C2)C(=O)[C@@H](C)C1 [Cycloheximide]
(A) 90

(Q) Determine its reported Emax: CN(C)CCCN1c2ccccc2CCc2ccc(Cl)cc21 [Clomipramine Hydrochloride]
(A) 58.5

(Q) Determine its reported Emax: Nc1nc2ccc(Cl)cc2c2nc(-c3ccco3)nn12 [CGS 15943]
(A) 44.9

(Q) Determine its reported Emax: C1CCC(C(CC2CCCCN2)C2CCCCC2)CC1 (stereo not drawn) [Perhexiline Maleate]
(A) 89

(Q) Determine its reported Emax: Nc1ccc(C(=O)N[C@@H](CCC(=O)O)C(=O)O)cc1 [N-(4-Aminobenzoyl)-L-glutamic acid]
(A) 85.5

Just for reference, patent US8475804B2 is where these values come from.
